B1: library; numbered along this chain (parent)
chain: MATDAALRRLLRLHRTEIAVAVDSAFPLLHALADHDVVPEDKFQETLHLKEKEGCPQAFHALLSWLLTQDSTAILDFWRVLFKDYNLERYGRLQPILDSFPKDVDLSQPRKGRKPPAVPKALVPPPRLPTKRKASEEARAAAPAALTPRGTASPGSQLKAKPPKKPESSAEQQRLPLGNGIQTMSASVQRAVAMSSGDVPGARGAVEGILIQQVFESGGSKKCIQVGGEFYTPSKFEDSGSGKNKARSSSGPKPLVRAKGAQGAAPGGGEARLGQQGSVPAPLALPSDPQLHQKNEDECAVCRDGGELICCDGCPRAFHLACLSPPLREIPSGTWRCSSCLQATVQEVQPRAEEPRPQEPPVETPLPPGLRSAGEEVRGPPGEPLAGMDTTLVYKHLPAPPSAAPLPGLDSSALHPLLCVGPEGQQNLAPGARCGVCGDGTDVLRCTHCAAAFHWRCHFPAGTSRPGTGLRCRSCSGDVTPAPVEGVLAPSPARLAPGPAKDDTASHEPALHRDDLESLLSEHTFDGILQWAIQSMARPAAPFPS

Variants of: B1
Assay: AIRE transcriptional activation functional score (insulin promoter-GFP; nonsense median 0, synonymous median 1) (normalised score); higher = higher AIRE activity (more reporter activation)
Settings: with insulin promoter-GFP reporter in HEK293
measured-parameter: AIRE transcriptional activation functional score

[[record]]
mutant_label = "D4F"
val = 0.414

[[record]]
mutant_label = "P254D"
val = 0.547

[[record]]
mutant_label = "V123C"
val = 1.27

[[record]]
mutant_label = "Q44P"
val = -0.185

[[record]]
mutant_label = "A429G"
val = 0.724

[[record]]
mutant_label = "E298Q"
val = 1.15

[[record]]
mutant_label = "R433C"
val = 0.922

[[record]]
mutant_label = "D84W"
val = 1.68

[[record]]
mutant_label = "L128N"
val = 1.02

[[record]]
mutant_label = "K222L"
val = 0.0335

[[record]]
mutant_label = "L13A"
val = 0.273

[[record]]
mutant_label = "T463C"
val = 1.42

[[record]]
mutant_label = "Q157R"
val = 0.62

[[record]]
mutant_label = "K501I"
val = 0.714

[[record]]
mutant_label = "R445V"
val = 0.784

[[record]]
mutant_label = "R328A"
val = 0.877

[[record]]
mutant_label = "G306D"
val = 0.954

[[record]]
mutant_label = "S278G"
val = 1.34

[[record]]
mutant_label = "V487R"
val = 0.785

[[record]]
mutant_label = "P357F"
val = 1.27

[[record]]
mutant_label = "V345M"
val = 1.28

[[record]]
mutant_label = "V104R"
val = 0.389

